- Tested on: SN12C renal
- test-name: NCI tumour cell line growth inhibition, 48 h
Listing: TGI of selected molecules

Worked set:
- COc1cc(NS(C)(=O)=O)ccc1Nc1cc(C)[nH]c2ccc3nccc3c12: > 100 µM
- COc1ccc(-c2nnc(COc3ccc(NC(=O)Nc4cc(C(F)(F)F)cc(C(F)(F)F)c4)cc3F)o2)cc1: 5.39 µM
- CCCCCCCCC/C=C1\CCC(CN2CCOCC2)C1=O (stereo not given): 13 µM
- O=C(CCc1nnc2sc(-c3ccc(Cl)cc3Cl)nn12)c1nc2ncccc2[nH]1: 4.92 µM
- CN(C)c1ccc(/C=C(\NC(=O)c2ccccc2)c2nc3ncncc3[nH]2)cc1: > 100 µM
- CCNC(=O)Cc1nc2c(N)ncnc2n1C1OC(CO)C(O)C1O (stereo not given): > 100 µM
- COc1ncnc(NS(=O)(=O)c2ccc(N=C3C(=O)N(CN4CCN(c5c(F)cc6c(=O)c(C(=O)O)cn(C7CC7)c6c5OC)CC4C)c4ccc(Cl)cc43)cc2)c1OC (stereo not given): > 50 µM
- COc1cc(/C=C/c2cc(O)c(C(C)=O)c(O)c2)cc2c1O[C@]1(C)CC[C@@H](O)C(C)(C)[C@H]1C2: 72.8 µM
- CCOC(=O)C1=C(C)C2C=C(c3cccs3)CC(c3ccc(Cl)cc3)=C2OC1=O (stereo not given): > 100 µM
- O=C1NCC2(CCN(CCCC3(c4ccc(F)cc4)OCCO3)CC2)N1c1ccccc1: > 100 µM

QUERY: Which value of TGI has been reported for COc1cccc2c(=O)oc(-c3ccc(C(C)(C)C)cc3)nc12 in the records?
RESULT: > 100 µM

QUERY: For CS(=O)c1ncc2c(n1)-c1ccccc1OC2 (stereo not given) then?
RESULT: > 100 µM

QUERY: // repeat for CCCCCCN(CCCCCC)C(=O)Cc1c2n(c3ccccc13)Cc1ccccc1-2 and report
RESULT: > 100 µM

QUERY: And then COC1=CC(=O)C(C2CC(=O)c3c(O)cc(O)cc3O2)=CC1=O (stereo not given) , what is it?
RESULT: 37.4 µM

QUERY: Quick one: COC(OC)C(C)CC(=O)N(C)C (stereo not given)
RESULT: > 100 µM

====

- System: HCT-116 colon
- test-name: NCI tumour cell line growth inhibition, 48 h
Listed next: entries and their corresponding TGI.

QUERY: // lookup TGI for OCCc1ccsc1-c1sc(-c2cc(CCO)c(-c3sccc3CCO)s2)cc1CCO
RESULT: 43.8 µM

QUERY: Now consider O=[N+]([O-])c1ccc(Oc2c(Cl)cc(S(=O)(=O)/N=C(\NO)Nc3ccc(Cl)cc3)cc2Cl)cc1 and answer again.
RESULT: 22.6 µM

QUERY: Now this one: CN(C(=O)c1ccc(C(F)(F)F)cc1)c1ccc(Oc2ccc3c(c2)cc(C(=O)N2CCN(Cc4ccc(OC(F)F)cc4)CC2)n3C)nc1
RESULT: > 100 µM

QUERY: Entry to check: Cc1cc(N(CCOS(C)(=O)=O)CCOS(C)(=O)=O)ccc1C=O
RESULT: > 100 µM

QUERY: Field entry: CC(C)=Cc1cc(C(=O)Nc2ccc(Cl)c(Cl)c2)nc(N)n1
RESULT: > 100 µM

QUERY: Now consider CCOC(=O)c1cn2c(nc1=O)N[C@H]1CCCC[C@@H]12 and answer again.
RESULT: > 100 µM

QUERY: Also CCOC(=O)c1ccc(NCC#CCN2CCOCC2)cc1 ?
RESULT: > 100 µM

QUERY: Could you do the same for OCc1ccc(-c2ccc(-c3ccc(CO)s3)o2)s1 , please?
RESULT: 45.2 µM

QUERY: Moving on to the next molecule: Brc1ccccc1C1SCc2nc3ccccc3n21 (centres undefined)
RESULT: 26 µM

QUERY: Moving on to O=c1c2sccc2n(CC2COc3ccccc3O2)c(=O)n1O (centres undefined)
RESULT: 29.2 µM

QUERY: Then what about the molecule CCCCC(C(=O)NCCNC(=O)CCC(=O)N(C)O)C(=O)NCCNC(=O)CCC(=O)N(C)O ?
RESULT: > 100 µM

QUERY: Cool, now Nc1ncnc2c1nnn2C1OC(CO)C(O)C1O (centres undefined)
RESULT: 10.5 µM

QUERY: Field entry: OC(c1cc(-c2ccc(C(F)(F)F)cc2)nc(-c2ccc(C(F)(F)F)cc2)c1)C1CCCCN1 (centres undefined)
RESULT: 3.18 µM

QUERY: # iterate: CS(=O)(=O)OCC(CCl)(CCl)CCl
RESULT: > 100 µM

QUERY: Same lookup for CC1=C[C@@H]2Cc3nc4cc(Cl)ccc4c(N)c3[C@H](C1)C2 , please.
RESULT: 14.5 µM

QUERY: Request: Cn1cnc([N+](=O)[O-])c1Sc1nc2ccccc2[nH]1
RESULT: 30.1 µM
